All figures here come from PubChem BioAssay AID2052.

double positive events reference
test: murine CD8 T cell vesicle adhesion modulation – mouse 2C CD8+ T cells, flow cytometry, primary screen (AID 2052); details: 2C CD8+ T cell-vesicle binding, at 7 µM, stronger effect = lower value; measured here: CD8+ vesicle-bound cell fraction;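 also: binding gate set so that unloaded-vesicle control wells show 10% double positive cells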
Screen size: about 330,000 compounds; about 220 (0.067%) were called active. This excerpt belongs to a sample that is enriched for actives.
Just the number please, in %, no unit attached.

>  <Molecule>
Cn1nc(C(F)(F)F)c2cc(NC(=O)OCC(C)(C)C)sc21

>  <double positive events (%)>
43.1

$$$$

Determine its reported double positive events: Cc1oc2c(F)c(F)c(F)c(F)c2c1S(=O)(=O)Nc1cccc(C(F)(F)F)c1
13.2

Supply measured double positive events of CC(=O)N1CCc2cc(S(=O)(=O)NC3CCCCC3)ccc21 in your reply.
27

In one line, give reported double positive events of the entry CCOc1ccc(CCNC(=O)COC(=O)C2CCN(c3ccc(C(F)(F)F)cn3)CC2)cc1OCC .
38.6

Let me know recorded double positive events for COc1cc(/C=C/C(=O)N2CCc3ccccc3C2)cc(OC)c1OC , thanks.
39.9

Input CCc1cccc2c3c([nH]c12)C(CC)(CC(=O)O)OCC3 (stereo unspecified) , output reported double positive events.
14.8

Give double positive events for the following molecule: Cc1ccc(CNC(=O)COC(=O)C2CCC2)cc1
37.4

Kindly indicate its recorded double positive events. Item: COC(=O)[C@@H]1CC(O)CN1C(=O)C12CC3CC(CC(C3)C1)C2 (stereo partly specified)
52.2

Give recorded double positive events. CCCC(CCC(=O)OC)(C(=O)OCC)c1csc(N)n1 (stereo unspecified)
19.7

Provide measured double positive events value, entry: CC(C)N1CCC(NC(=O)Nc2ccccc2)CC1
60.7

Return double positive events (reported value) for this molecule: CC1CC(C)(C)n2c(O)c(N=NC(N)=S)c3cccc1c32 (stereo unspecified)
21.4
